MIC data for Acinetobacter baumannii ATCC 19606 follow.
The reply should contain only the number, in µg/mL.

CCCCC/C(C)=C/C=C(\C)C(=O)c1c(O)cc(CCC/C=C/NC(=O)OC)oc1=O | 19
CCCCCC/C(C)=C/C=C(\C)C(=O)c1c(O)cc(CCC/C=C/NC(=O)OC)oc1=O | 5.5

Checklist item: MIC tested on Acinetobacter baumannii ATCC 19606, entry CCCCCC/C=C/C=C(\C)C(=O)c1c(O)cc(C(C)CC/C=C/NC(=O)OC)oc1=O (stereo not shown) , value?
25

====

molecular target: M. tuberculosis RNA polymerase (Mycobacterium tuberculosis, UniProt P9WGY7+P9WGY9); experiment: Inhibition of Mycobacterium tuberculosis RNA polymerase (fluorescence-detected); assay type: biochemical; conditions: read-out: IC50 M. tuberculosis RNAP
Sequence (P9WGY5 whole entry): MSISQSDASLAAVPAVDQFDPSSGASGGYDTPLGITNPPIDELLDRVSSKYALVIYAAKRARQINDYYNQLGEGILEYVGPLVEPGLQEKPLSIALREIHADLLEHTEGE
Sequence (P9WGZ1 whole entry, further chain): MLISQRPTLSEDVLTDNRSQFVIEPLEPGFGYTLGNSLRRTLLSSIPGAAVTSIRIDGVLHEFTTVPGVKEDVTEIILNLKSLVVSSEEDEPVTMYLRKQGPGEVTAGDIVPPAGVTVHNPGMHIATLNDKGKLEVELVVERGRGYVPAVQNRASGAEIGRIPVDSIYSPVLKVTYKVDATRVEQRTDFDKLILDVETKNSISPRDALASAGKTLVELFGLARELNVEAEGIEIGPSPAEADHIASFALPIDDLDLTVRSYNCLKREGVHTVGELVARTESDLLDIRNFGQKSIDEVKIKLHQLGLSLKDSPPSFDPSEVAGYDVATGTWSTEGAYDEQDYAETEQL
Sequence (P9WGY9 whole entry): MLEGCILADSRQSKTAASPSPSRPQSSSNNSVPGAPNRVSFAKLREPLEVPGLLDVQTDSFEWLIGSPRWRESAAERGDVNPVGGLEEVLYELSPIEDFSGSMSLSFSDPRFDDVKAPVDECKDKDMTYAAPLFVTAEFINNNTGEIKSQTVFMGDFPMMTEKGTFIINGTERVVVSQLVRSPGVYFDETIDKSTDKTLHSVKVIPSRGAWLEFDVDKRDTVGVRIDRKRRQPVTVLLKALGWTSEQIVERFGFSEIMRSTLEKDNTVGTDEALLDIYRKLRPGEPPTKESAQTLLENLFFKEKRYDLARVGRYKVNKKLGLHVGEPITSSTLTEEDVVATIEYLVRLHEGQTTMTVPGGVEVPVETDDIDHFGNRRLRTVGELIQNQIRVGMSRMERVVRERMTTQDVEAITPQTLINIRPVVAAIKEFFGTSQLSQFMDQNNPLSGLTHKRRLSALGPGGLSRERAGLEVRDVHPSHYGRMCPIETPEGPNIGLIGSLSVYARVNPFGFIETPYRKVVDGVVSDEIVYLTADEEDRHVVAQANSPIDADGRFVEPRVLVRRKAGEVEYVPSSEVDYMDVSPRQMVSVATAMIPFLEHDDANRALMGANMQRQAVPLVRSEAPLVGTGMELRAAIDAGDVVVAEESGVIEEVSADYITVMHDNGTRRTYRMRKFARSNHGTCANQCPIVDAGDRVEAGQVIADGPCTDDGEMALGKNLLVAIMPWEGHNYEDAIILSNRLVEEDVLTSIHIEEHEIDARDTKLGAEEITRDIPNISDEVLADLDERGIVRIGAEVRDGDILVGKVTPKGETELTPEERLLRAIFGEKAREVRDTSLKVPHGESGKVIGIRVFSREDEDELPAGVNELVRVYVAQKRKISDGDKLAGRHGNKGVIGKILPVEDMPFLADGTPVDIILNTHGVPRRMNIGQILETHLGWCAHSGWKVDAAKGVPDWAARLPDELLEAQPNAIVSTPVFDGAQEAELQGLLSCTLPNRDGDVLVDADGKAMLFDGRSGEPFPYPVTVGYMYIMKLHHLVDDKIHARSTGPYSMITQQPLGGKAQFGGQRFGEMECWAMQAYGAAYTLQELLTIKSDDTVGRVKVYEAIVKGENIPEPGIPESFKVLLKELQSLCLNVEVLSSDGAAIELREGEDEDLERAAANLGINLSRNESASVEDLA
Sequence (P9WGY7 whole entry): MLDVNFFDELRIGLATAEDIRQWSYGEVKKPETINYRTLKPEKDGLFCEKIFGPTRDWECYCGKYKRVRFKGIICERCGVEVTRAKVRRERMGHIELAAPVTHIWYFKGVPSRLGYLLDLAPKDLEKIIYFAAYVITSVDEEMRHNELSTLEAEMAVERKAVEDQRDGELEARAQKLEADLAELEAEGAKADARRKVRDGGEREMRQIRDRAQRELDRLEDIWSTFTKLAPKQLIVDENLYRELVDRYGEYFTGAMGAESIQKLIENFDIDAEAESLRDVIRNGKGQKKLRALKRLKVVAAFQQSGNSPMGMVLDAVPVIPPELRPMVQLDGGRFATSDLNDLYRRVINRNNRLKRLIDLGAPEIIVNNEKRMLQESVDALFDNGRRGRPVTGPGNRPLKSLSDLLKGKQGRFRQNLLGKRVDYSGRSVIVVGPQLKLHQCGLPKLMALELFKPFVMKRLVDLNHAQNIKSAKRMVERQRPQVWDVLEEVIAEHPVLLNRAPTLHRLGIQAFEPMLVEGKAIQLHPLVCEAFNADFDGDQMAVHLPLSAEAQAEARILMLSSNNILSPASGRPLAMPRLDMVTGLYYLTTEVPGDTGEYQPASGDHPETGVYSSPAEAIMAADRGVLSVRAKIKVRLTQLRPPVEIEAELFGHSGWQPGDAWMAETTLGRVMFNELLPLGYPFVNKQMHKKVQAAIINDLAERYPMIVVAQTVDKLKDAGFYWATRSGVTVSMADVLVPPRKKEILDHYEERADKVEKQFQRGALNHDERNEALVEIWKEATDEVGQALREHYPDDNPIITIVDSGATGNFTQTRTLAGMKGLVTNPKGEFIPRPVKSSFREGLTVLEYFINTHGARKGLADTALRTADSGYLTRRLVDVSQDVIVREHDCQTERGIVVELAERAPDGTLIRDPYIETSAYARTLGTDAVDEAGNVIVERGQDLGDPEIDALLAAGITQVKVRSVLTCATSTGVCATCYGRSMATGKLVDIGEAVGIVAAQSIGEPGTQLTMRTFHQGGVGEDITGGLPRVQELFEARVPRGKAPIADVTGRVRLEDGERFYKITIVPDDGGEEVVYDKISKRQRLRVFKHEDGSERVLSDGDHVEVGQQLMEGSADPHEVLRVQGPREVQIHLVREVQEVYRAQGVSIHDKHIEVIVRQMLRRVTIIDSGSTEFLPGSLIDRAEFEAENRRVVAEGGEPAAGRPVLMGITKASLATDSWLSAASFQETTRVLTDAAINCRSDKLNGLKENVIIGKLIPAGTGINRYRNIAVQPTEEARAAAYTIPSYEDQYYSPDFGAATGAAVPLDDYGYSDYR
Sequence (P9WGI1 whole entry, further chain): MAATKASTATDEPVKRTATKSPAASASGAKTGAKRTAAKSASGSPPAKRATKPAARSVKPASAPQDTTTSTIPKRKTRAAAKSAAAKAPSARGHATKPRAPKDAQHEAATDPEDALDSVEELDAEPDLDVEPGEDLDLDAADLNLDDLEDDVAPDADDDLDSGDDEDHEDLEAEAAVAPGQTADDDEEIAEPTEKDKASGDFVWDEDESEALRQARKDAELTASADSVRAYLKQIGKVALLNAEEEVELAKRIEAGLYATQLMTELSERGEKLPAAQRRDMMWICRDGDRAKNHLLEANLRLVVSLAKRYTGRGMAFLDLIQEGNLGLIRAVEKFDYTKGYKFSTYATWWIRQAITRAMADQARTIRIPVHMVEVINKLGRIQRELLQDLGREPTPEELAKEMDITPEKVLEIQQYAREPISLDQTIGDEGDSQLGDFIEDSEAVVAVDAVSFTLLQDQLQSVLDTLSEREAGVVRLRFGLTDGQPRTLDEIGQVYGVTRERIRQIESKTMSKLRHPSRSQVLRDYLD
Items are presented alongside their recorded pIC50.
In simple prose, pIC50 is minus the logarithm base ten of a concentration in moles per litre.

# count of solved cases: 4
CCCCC/C(C)=C/C=C(\C)C(=O)c1c(O)cc(CCC/C=C/NC(=O)OC)oc1=O [compound 5] | 7.49
CCCCCC/C(C)=C/C=C(\C)C(=O)c1c(O)cc(CCC/C=C/NC(=O)OCC)oc1=O [compound 7] | 6.35
CCCCCCCC/C=C/C=C(\C)C(=O)c1c(O)cc([C@H](C)CC/C=C/NC(=O)OC)oc1=O (racemic) [compound 4] | 6.49
CCCCC/C=C/C=C(\C)C(=O)c1c(O)cc(C(C)CC/C=C/NC(=O)OC)oc1=O (stereo not shown) [compound 1] | 7.07

# lookup: pIC50 of CCCCC/C(C)=C\C=C(/C)C(=O)c1c(O)cc(CCC/C=C/NC(=O)OC)oc1=O [compound 10]
6.47

# lookup: pIC50 of CCCCCC/C=C/C=C(\C)C(=O)c1c(O)cc(C(C)CC/C=C/NC(=O)OC)oc1=O (stereo not shown) [compound 2]
7.15

# lookup: pIC50 of CCCCCCC/C=C/C=C(\C)C(=O)c1c(O)cc(C(C)CC/C=C/NC(=O)OC)oc1=O (stereo not shown) [compound 3]
6.57

====

MIC data for Escherichia coli D21f2tolC follow.

CCCCCCCC/C=C/C=C(\C)C(=O)c1c(O)cc([C@H](C)CC/C=C/NC(=O)OC)oc1=O (racemic) | < 0.18 µg/mL

Checklist item: MIC tested on Escherichia coli D21f2tolC, entry `CCCCC/C(C)=C\C=C(/C)C(=O)c1c(O)cc(CCC/C=C/NC(=O)OC)oc1=O` , value?
0.39 µg/mL

Checklist item: MIC tested on Escherichia coli D21f2tolC, entry `CCCCCC/C(C)=C/C=C(\C)C(=O)c1c(O)cc(CCC/C=C/NC(=O)OC)oc1=O` , value?
0.076 µg/mL

Checklist item: MIC tested on Escherichia coli D21f2tolC, entry `CCCCC/C(C)=C/C=C(\C)C(=O)c1c(O)cc(CCC/C=C/NC(=O)OC)oc1=O` , value?
0.076 µg/mL

Checklist item: MIC tested on Escherichia coli D21f2tolC, entry CCCCCC/C(C)=C/C=C(\C)C(=O)c1c(O)cc(C(C)CC/C=C/NC(=O)OC)oc1=O (stereo not shown) , value?
0.076 µg/mL

Checklist item: MIC tested on Escherichia coli D21f2tolC, entry `CCCCCC/C(C)=C/C=C(\C)C(=O)c1c(O)cc(CCC/C=C/NC(=O)OCC)oc1=O` , value?
0.37 µg/mL

Checklist item: MIC tested on Escherichia coli D21f2tolC, entry CCCC/C(C)=C/C=C(\C)C(=O)c1c(O)cc(C(C)CC/C=C/NC(=O)OC)oc1=O (stereo not shown) [Myx B, reference compound] , value?
0.098 µg/mL

Every entry's value here was drawn from patent US9133155B2.
